- assay: GST conjugation activity with Atrazine (HPLC)
- Type: biochemical
- assay context: 0.4 mM electrophilic substrate, 4 mM glutathione, 0.1 M MOPS pH 7.0, corrected for uncatalyzed reaction
Quick reference: Activity of soybean GST enzyme, Atrazine of the listed items.
Respond with the bare value in nmol/min/mg.

Consider the reported Activity of soybean GST enzyme, Atrazine for these molecules:
INSERT INTO results (molecule, observed_property, observed) VALUES
  ('se1.pk0017.f5: soybean type IV GST encoded by cDNA insert in clone se1.pk0017.f5 (protein) MASLGVRPVLPPPLTSISDPPPLFDGTTRLYISYSCPYAQRVWIARNYKGLQDKINLVPINLQDRPAWYKEKVYPENKVPSLEHNGKVLGESLDLIKYVDANFEGTPLFPSDPAKKEFGEQLISHVDTFSKDLFVSLKGDAVQQASPAFEYLENALGKFDDGPFLLGQFSLVDIAYIPFVERFQIVFAEVFKHDITEGRPKLATWFEELNKLNAYTETRVDPQEIVDLFKKRFLPQQ', 'Activity of soybean GST enzyme, Atrazine', 0.00),
  ('ssm.pk0067.g5: soybean type III GST encoded by cDNA insert in clone ssm.pk0067.g5 (protein) MASYHEEEVRLLGKWASPFSNRVDLALKLKGVPYKYSEEDLANKSADLLKYNPVHKKVPVLVHNGNPLPESLIIVEYIDETWKNNPLLPQDPYERALARFWSKTLDDKILPAIWNACWSDENGREKAVEEALEALKILQETLKDKKFFGGESIGLVDIAANFIGYWVAILQEIAGLELLTIEKFPKLYNWSQDFINHPVIKEGLPPRDELFAFFKASAKK', 'Activity of soybean GST enzyme, Atrazine', 0.03);

Any idea what Activity of soybean GST enzyme, Atrazine was measured for ssm.pk0026.g11: soybean type II GST encoded by cDNA insert in clone ssm.pk0026.g11 (protein) MASASVGKELTLYSYWRSSCSHRVRIALNLKGLKYEYKPVNLLKGEQSRPEFLQLNPVGCVPVLVDDHVVLYDSFAIIMYLEDKYPHNPLLPHDIYKRAINFQAASVVSSTIQPLHNLSLLNYIGEKVGPDEKLPWAQSIIRRGFKALEKLLKDHTGRYATGDEVFLADIFLAPQLHAAFKRFNIHMNEFPILARLHETYNEIPAFQEALPENQPDAVH ?
0.00

Any idea what Activity of soybean GST enzyme, Atrazine was measured for ssl.pk0002.f7: soybean type III GST encoded by cDNA insert in clone ss1.pk0002.f7 (protein) MADGVVLLDTWASMFGMRVRIALAEKGVEYEYKEENLRNKSPLLLQMNPIHKKIPVLIHNGKPICESAIIVQYIDEVWNDKAPILPSDPYERAQARFWVDYIDKKVYDTWRKMWLSKGEEHEAGKKEFISIFKQLEETLSDKAYYGSDTFGFLDIGLIPFYSWFYTFETYGNFKMEEECPKLVAWAKRCMQREAVSKSLS ?
0.00

Value source: patent US6168954A
